Target: T1, human interleukin-18 (Homo sapiens, UniProt Q14116)
T1 sequence (Q14116 37-193): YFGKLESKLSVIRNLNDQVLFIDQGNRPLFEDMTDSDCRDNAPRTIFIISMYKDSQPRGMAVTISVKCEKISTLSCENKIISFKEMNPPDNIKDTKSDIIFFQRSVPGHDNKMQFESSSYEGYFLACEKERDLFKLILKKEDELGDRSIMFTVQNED
Assay: Luminex screening: monoclonal antibodies binding on IL-18
Conditions: IL-18 on Luminex beads
READOUT_TYPE: Monoclonal antibodies binding on IL-18, Fluorescence intensity

Entry 132H4: monoclonal anti-IL-18 antibody; VH SEQ ID NO: 23, VK SEQ ID NO: 24 (antibody, V domains shown, Antibody 132H4 VH sequence; Antibody 132H4 VK sequence) VH: EVKLVESGGGLVKPGGSLKLSCAASGFTFSNYAMSWVRQNPAKRLEWVATISSGGANIYYPDSVKGRFIISRDNARNTLYLQMSSLRSEDTAMYYCARGDYFNHFWFAYWGQGTLVTVSA VL: DVLMTQTPLSLPVSLGDQASISCRSSQSIVHSNGNTYLEWYLQKPGQSPKFLIYKVSNRFSGVPDRFSGSGSGTDFTLKINRVEAEDLGIYYCFQGSHVPWTFGGGTKLEIK : reported Monoclonal antibodies binding on IL-18, Fluorescence intensity = ? 23 839

Entry to check: 131B4: monoclonal anti-IL-18 antibody; VH SEQ ID NO: 18, VK SEQ ID NO: 19 (antibody, V domains shown, Antibody 131B4 VH sequence; Antibody 131B4 VK sequence) VH: EVQVQQSGAELVKPGASVKLSCTASGFKIKDTYIHWLKQRPEQGLEWIGRIDPANGNTIYGSKFQGKATITADTSSNTAYIQLSSLTSGDTAVYFCAGYVWFAYWGQGTLVTVSA VL: DAVLTQTPLSLPVSLGDQASISCTSSQSLVHSNGNTYLHWYLQKPGQSPKLLIYKVSDRFSGVPDRFSGSGSGTDFTLMITRVEAEDLGVYFCSQSSLVPWTFGGGTKLEVK 24 838

Subsequent entry: 109A6: monoclonal anti-IL-18 antibody; VH SEQ ID NO: 13, VK SEQ ID NO: 14 (antibody, V domains shown, Antibody 109A6 VH sequence; Antibody 109A6 VK sequence) VH: EVQLQQSGAELVKPGASVKLSCTASGFKIKDTYIHWVIQRPAQGLEWIGRIDPANGNTIYGSKFQGKATLTADTSSNTAYIHLSSLTSGDSAVYYCAGYVWFAYWGQGTLVTVSA VL: DVVMTQVPLSLPVSLGDQASISCRSSQRLVHSNGNTYLHWFLQKPGQSPKLLIYTVSNRFSGVPDRFSGSGSGTDFTLKISRVEAEDLGVYFCSQSTLVPWTFGGGTKLEIK 25 848
